# Test system: SF-268
# test: NCI tumour cell line growth inhibition, 48 h
Active and inactive are the calls of the source. Rule as the data show it: active = GI50 up to about 1.1 µM and inactive = higher.
Field 'call' accepts true (1) (active), false (0) (inactive)

Could you please tell me the result logged for COc1cc2c(cc1C)NC(=O)/C2=C/c1cccnc1 in this assay?
false (0)

Check the results log: what was the call for CCOC(=O)Nn1c(C)nnc1CC#N ?
false (0)

Test call for this compound, please: CCOC(=O)N1CCC2(CC1)CC(=O)N(Nc1ccccc1)C2=O
false (0)

---

# Test system: Hs-578T
# test: NCI tumour cell line growth inhibition, 48 h
The source made the active and inactive calls. Rule as the data show it: active = GI50 up to about 1.1 µM and inactive = higher.
Assign a class; possible classes are 1 = active, -1 = inactive

Field: example entries. Status: answers known.
Could you check what this test reported for CCCC(=O)NC(Nc1ccc(S(=O)(=O)Nc2cc(C)on2)cc1)(C(=O)OCC)C(F)(F)F (configuration not stated) ?
-1

Which result was noted for this compound in the test: O=C(CCCn1ccnc1[N+](=O)[O-])NCCn1ccnc1[N+](=O)[O-]
-1

Which outcome was assigned to Brc1ccc2c(-c3csc(-c4c[nH]c5ccc(Br)cc45)n3)c[nH]c2c1 in this test?
-1

Outcome? COc1cc(O)c2c(O)c3c(=O)oc(C)cc3c(OC)c2c1 [PAEPALANTINE]
-1

More entries:
For this compound, state the assay outcome: CCOC(=O)C1(C(=O)OCC)OC(C)=NC1(C(=O)OC)C(=O)OC
-1

Which outcome was assigned to CCOC(=O)COC1=Nc2cc(OC)c(OC)c3nc(Cl)cc(c23)C1=O in this test?
-1

Call for entry O=S(=O)(c1cc(Cl)ccc1Cl)N1CCN(c2cccc(Cl)c2)CC1 :
-1

Recorded test call requested for COc1ncnc2c(Cl)c(C(O)c3ccccc3)c(Cl)cc12 (configuration not stated)
-1

# fetch the recorded call for Cc1cc2cc3c(cc2c(-c2ccc([N+](=O)[O-])cc2)n1)OCO3 here
-1

Hi, do you know how COc1ccc(/C=C2\CCC(C)C3=C(c4ccc(OC)c(OC)c4)C(C#N)=C(N)OC32)cc1OC (configuration not stated) came out in this test?
-1
